Entry source: PubChem BioAssay (NCATS)

Target: Cytochrome P450 3A4 (Homo sapiens)
Test: qHTS Assay for Activators of Cytochrome P450 3A4 (AID 885); note: nearly all actives have a fitted effect of over 65% in size
Conditions: recombinant CYP3A4, Luciferin-PPXE luminescence, 60 min; series mostly up to 57.1 µM
The source made the active and inactive calls. Calls come from the whole dose curve; as a rule, active = well fitted activation curve with a large enough effect; inconclusive = small, poorly fitted or top-dose-only effect; inactive = no such curve, though single readings can be large or run the other way.
Write down the outcome that applies. Available outcomes: true (1) (active), false (0) (inactive)

Example cases with answers are listed next.
- molecule: "CN(C)Cc1ccccc1-c1nc(N(C)Cc2ccco2)c2ccccc2n1"
  target_entity: "Cytochrome P450 3A4 (Homo sapiens)"
  assigned_label: "false (0)"
- molecule: "N#Cc1cccc(NC(=O)N2CC3(CCN(C(=O)c4cccc(F)c4)CC3)C2)c1"
  target_entity: "Cytochrome P450 3A4 (Homo sapiens)"
  assigned_label: "true (1)"
- molecule: "COc1ncc2ncc(=O)n(Cc3ccc(F)cc3)c2n1"
  target_entity: "Cytochrome P450 3A4 (Homo sapiens)"
  assigned_label: "false (0)"
- molecule: "Cc1cccc(CNc2ccnc(-c3ccccc3CN(C)C)n2)c1"
  target_entity: "Cytochrome P450 3A4 (Homo sapiens)"
  assigned_label: "false (0)"
- molecule: "CN(C)C(=O)c1ccc(-c2cncnc2NCCN2CCOCC2)cc1"
  target_entity: "Cytochrome P450 3A4 (Homo sapiens)"
  assigned_label: "false (0)"

Okay, next one:
Incoming: Returns: the outcome recorded for COc1ccccc1CCn1c(=O)c(-c2ccc(F)c(F)c2)nc2cncnc21 in this assay.
Outgoing: false (0)
